Target: T1, PUF4 RNA-binding domain (Saccharomyces cerevisiae, UniProt P25339 537-888)
T1 sequence: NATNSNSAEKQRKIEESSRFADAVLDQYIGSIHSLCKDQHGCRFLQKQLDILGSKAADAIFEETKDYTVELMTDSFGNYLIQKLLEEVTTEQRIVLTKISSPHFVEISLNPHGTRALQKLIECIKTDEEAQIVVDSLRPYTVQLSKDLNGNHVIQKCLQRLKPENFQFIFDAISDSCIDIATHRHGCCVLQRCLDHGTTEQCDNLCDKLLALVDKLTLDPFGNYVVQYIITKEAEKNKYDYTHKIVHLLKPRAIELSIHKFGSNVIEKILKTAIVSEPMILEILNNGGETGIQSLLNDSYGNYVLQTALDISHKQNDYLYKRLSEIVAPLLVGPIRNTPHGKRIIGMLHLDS
Test: Mg; RNA-MaP; 20 mM Na-HEPES pH 7.4, 30 mM KOAc, 0.75 mM MgCl2, 0.1% Tween-20, 5% glycerol, 0.1 mg/mL BSA, 2 mM DTT; 25 C; 0.0125-409.6 nM protein
Conditions: tags: N-His6-TEV cleaved; C-SNAP kept, Cy3B-labelled; label: tethered on chip by stalled RNA polymerase
measured_attribute: pKd
Convention used: pKd is expressed as -log10 of the molar concentration.

[Q] Look up pKd: UCUCUUAUUAUAUAUACUUCUCUU (ssRNA) [Id_ii_S1_P3E.3_K3.2_C3.2_[C-2A]_H3.2_A3.1_F3.1_T3.2_[T9C]_[A10T]]
[A] 6.28

Read the next record carefully.
[Q] Given Ic_S2_P5E.1_K5.1_C5.1_H5.1_A5.1_[T5A]_[A7T]_F5.1_[T8G]_[T9C]_[A10C]_T5.1 (ssRNA) RNA: UUUGAUUAAUAUGAUAUCGUUCUUUCUUGUAAUUGCCUUCUUUCUCGAUAUCAUAUUAAUCUUU , state its recorded pKd.
[A] 6.21
